Target: PBK (human) (UniProt Q96KB5)
Sequence (Q96KB5 whole entry, looked up): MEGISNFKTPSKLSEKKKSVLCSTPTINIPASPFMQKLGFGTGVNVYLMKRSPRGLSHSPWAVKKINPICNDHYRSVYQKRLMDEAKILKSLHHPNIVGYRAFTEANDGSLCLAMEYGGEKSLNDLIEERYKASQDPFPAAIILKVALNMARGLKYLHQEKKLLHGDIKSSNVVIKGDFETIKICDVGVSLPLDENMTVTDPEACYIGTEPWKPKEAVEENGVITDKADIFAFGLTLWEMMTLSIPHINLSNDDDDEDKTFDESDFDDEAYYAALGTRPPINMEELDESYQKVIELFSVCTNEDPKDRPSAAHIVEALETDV
Assay: radiometric filter-binding kinase assay, Kinase HotSpot
Conditions: compound 0.5 µM; ATP 10 µM
Catalogue of molecules with associated residual activity
Lab note: write values as number then unit, every time.

A selection of reference data follows.
- Structure string: "COc1ccc(Cl)cc1NC(=O)Nc1cc(C)nc2ccccc12"
  Tested on: "PBK (human) (UniProt Q96KB5)"
  residual activity: "98.5%"
- Structure string: "COc1cc(Nc2c(C#N)cnc3cc(OCCCN4CCN(C)CC4)c(OC)cc23)c(Cl)cc1Cl"
  Tested on: "PBK (human) (UniProt Q96KB5)"
  residual activity: "104%"
- Structure string: "N#Cc1c[nH]c2c[nH]/c(=N\\Cc3cccnc3)cc2/c1=N\\c1ccc(F)c(Cl)c1"
  Tested on: "PBK (human) (UniProt Q96KB5)"
  residual activity: "84.8%"

input: Recorded residual activity of Cc1cncc2cccc(S(=O)(=O)N3CCCN(C(=O)CN)C[C@H]3C)c12 , please.
output: 98.6%

input: Recorded residual activity of COc1cc2ncnc(Nc3ccc(Oc4ccccc4)cc3)c2cc1OC , please.
output: 92.6%

----------
Target: PHKG2 (human)
Test: radiometric filter-binding kinase assay, Kinase HotSpot
Details: compound 0.5 µM; ATP 10 µM
Reported metric: residual activity (%)
Expressed in %, but write only the number.

- Structure string: "COc1cc2ncnc(Nc3ccc(Oc4ccccc4)cc3)c2cc1OC"
  Units label: "%"
  residual activity: 100
- Structure string: "Cn1c2ccccc2c2c3c(c4c5ccccc5n(CCC#N)c4c21)CNC3=O"
  Units label: "%"
  residual activity: 8.4
- Structure string: "CN(C)CCCn1cc(C2=C(c3c[nH]c4ccccc34)C(=O)NC2=O)c2ccccc21"
  Units label: "%"
  residual activity: 97.9
- Structure string: "Ic1cccc(CSc2nnc(-c3ccncc3)o2)c1"
  Units label: "%"
  residual activity: 105

input: Recorded residual activity of COc1ccc(C(=O)Nc2sc3c(c2C(N)=O)CCCC3)cc1OC , please.
output: 106

----------
Target: IGF1R (human)
Assay: radiometric filter-binding kinase assay, Kinase HotSpot
Details: compound 0.5 µM; ATP 10 µM
Catalogue of compounds with associated residual activity
Expressed in %, but write only the number.

- Structure string: "N#Cc1c[nH]c2c[nH]/c(=N\\Cc3cccnc3)cc2/c1=N\\c1ccc(F)c(Cl)c1"
  residual activity (%): 93.8
- Structure string: "COc1ccc(C(=O)Nc2sc3c(c2C(N)=O)CCCC3)cc1OC"
  residual activity (%): 97.7
- Structure string: "Cc1cccc(-c2nc(C(C)(C)C)[nH]c2-c2ccc3c(c2)OCO3)n1"
  residual activity (%): 96.2
- Structure string: "O=C1C(Cl)=C(N2C(=O)CCC2=O)C(=O)c2ccccc21"
  residual activity (%): 107

input: Recorded residual activity of COc1cc2ncnc(Nc3ccc(Oc4ccccc4)cc3)c2cc1OC , please.
output: 102

input: Recorded residual activity of CS(=O)(=O)CCNCc1ccc(-c2ccc3ncnc(Nc4ccc(OCc5cccc(F)c5)c(Cl)c4)c3c2)o1 , please.
output: 87.4

input: Recorded residual activity of O=C1c2ccccc2-c2nc3nnnn3nc21 , please.
output: 91.1

input: Recorded residual activity of COc1cc2ncnc(Nc3ccc(OCc4ccccc4)cc3)c2cc1OC , please.
output: 102

input: Recorded residual activity of c1ccc2c(-c3ccncc3)c[nH]c2c1 , please.
output: 105

input: Recorded residual activity of CN(C)CCCn1cc(C2=C(c3c[nH]c4ccccc34)C(=O)NC2=O)c2ccccc21 , please.
output: 91.7

input: Recorded residual activity of CC(C)(C)c1cc(C=C(C#N)C#N)cc(Br)c1O , please.
output: 96.6

input: Recorded residual activity of CN(C)c1ccc(/C=C2\C(=O)Nc3ccccc32)cc1 , please.
output: 101

input: Recorded residual activity of O=C1Nc2ccc(Br)cc2/C1=C\c1cc2c([nH]1)CCCC2 , please.
output: 74.3

input: Recorded residual activity of CN(C)S(=O)(=O)c1ccc2c(c1)/C(=C/c1cc3c([nH]1)CCCC3)C(=O)N2 , please.
output: 89.5

input: Recorded residual activity of C[C@@H]1CCN(C(=O)CC#N)C[C@@H]1N(C)c1ncnc2[nH]ccc12 , please.
output: 93.1

input: Recorded residual activity of O=C1NC(=O)c2c1c1c3ccccc3[nH]c1n1cncc21 , please.
output: 76.8

----------
Target: MAP3K8 (human)
Assay: radiometric filter-binding kinase assay, Kinase HotSpot
Conditions: compound 0.5 µM; ATP 10 µM
Catalogue of compounds with associated residual activity

A selection of reference data follows.
- Structure string: "CN(C)S(=O)(=O)c1ccc2c(c1)/C(=C/c1cc3c([nH]1)CCCC3)C(=O)N2"
  residual activity: "94.6%"
- Structure string: "NC(=O)c1cccc(-c2cc(Nc3ccc(OC(F)(F)F)cc3)ncn2)c1"
  residual activity: "96.8%"
- Structure string: "CN(C)CCCn1cc(C2=C(c3c[nH]c4ccccc34)C(=O)NC2=O)c2ccccc21"
  residual activity: "93.9%"
- Structure string: "COc1ccc2c(c1)c(C1=C(c3c[nH]c4ccccc34)C(=O)NC1=O)cn2CCCN(C)C"
  residual activity: "93.8%"
- Structure string: "COc1ccc(C(=O)Nc2sc3c(c2C(N)=O)CCCC3)cc1OC"
  residual activity: "106%"

input: Recorded residual activity of COc1ccc2c(c1)/C(=C/c1cnc[nH]1)C(O)=N2 , please.
output: 91.1%

input: Recorded residual activity of COc1cc(Nc2c(C#N)cnc3cc(OCCCN4CCN(C)CC4)c(OC)cc23)c(Cl)cc1Cl , please.
output: 101%

input: Recorded residual activity of COc1ccc(S(=O)(=O)N(CCO)c2ccccc2CN(C)C/C=C/c2ccc(Cl)cc2)cc1 , please.
output: 96.3%

----------
Target: CSK (human)
Test: radiometric filter-binding kinase assay, Kinase HotSpot
Settings: compound 0.5 µM; ATP 10 µM
Catalogue of compounds with associated residual activity
Expressed in %, but write only the number.

- Structure string: "O=C1C(Cl)=C(N2C(=O)CCC2=O)C(=O)c2ccccc21"
  Tested on: "CSK (human)"
  residual activity [%]: 79.5
- Structure string: "N#Cc1c[nH]c2c[nH]/c(=N\\Cc3cccnc3)cc2/c1=N\\c1ccc(F)c(Cl)c1"
  Tested on: "CSK (human)"
  residual activity [%]: 95.2
- Structure string: "COc1cc2ncnc(Nc3ccc(Oc4ccccc4)cc3)c2cc1OC"
  Tested on: "CSK (human)"
  residual activity [%]: 18.8
- Structure string: "CS(=O)(=O)CCNCc1ccc(-c2ccc3ncnc(Nc4ccc(OCc5cccc(F)c5)c(Cl)c4)c3c2)o1"
  Tested on: "CSK (human)"
  residual activity [%]: 106
- Structure string: "COc1cc2ncnc(Nc3ccc(OCc4ccccc4)cc3)c2cc1OC"
  Tested on: "CSK (human)"
  residual activity [%]: 72.5

Now consider a different compound.
input: Recorded residual activity of CO[C@@H]1[C@H](N(C)C(=O)c2ccccc2)C[C@H]2O[C@]1(C)n1c3ccccc3c3c4c(c5c6ccccc6n2c5c31)C(=O)NC4 , please.
output: 55.1

----------
Molecular target: CDK2 CCNA2 (human) (UniProt P24941+P20248)
Sequence (P20248 whole entry, looked up, other chains not shown): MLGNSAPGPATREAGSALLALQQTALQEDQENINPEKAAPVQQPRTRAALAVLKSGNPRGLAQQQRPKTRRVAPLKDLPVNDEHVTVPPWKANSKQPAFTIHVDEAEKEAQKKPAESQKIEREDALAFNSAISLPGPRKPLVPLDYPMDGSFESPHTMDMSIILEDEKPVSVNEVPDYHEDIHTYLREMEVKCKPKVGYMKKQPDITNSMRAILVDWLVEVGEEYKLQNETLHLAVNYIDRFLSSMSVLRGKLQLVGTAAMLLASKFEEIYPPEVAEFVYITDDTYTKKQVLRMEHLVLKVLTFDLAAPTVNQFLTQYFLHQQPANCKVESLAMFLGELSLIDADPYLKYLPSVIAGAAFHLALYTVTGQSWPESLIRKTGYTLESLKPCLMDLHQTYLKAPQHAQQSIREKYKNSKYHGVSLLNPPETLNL
Test: radiometric filter-binding kinase assay, Kinase HotSpot
Conditions: compound 0.5 µM; ATP 10 µM
Reported metric: residual activity (%)
Expressed in %, but write only the number.

A selection of reference data follows.
- Structure string: "CN1CCN(c2ccc3nc(-c4c(N)c5c(F)cccc5[nH]c4=O)[nH]c3c2)CC1"
  residual activity (%): 91
- Structure string: "CCCCc1c(-c2ccc(OC)cc2)[nH]c2nccnc12"
  residual activity (%): 36.3

input: Recorded residual activity of O=C1NC(=O)c2c1c1c3ccccc3[nH]c1n1cncc21 , please.
output: 75.9

input: Recorded residual activity of COc1ccc(Cl)cc1NC(=O)Nc1cc(C)nc2ccccc12 , please.
output: 98.6

input: Recorded residual activity of NCCNc1ncc(C(N)=O)c(Nc2cccc(C(F)(F)F)c2)n1 , please.
output: 97.6

input: Recorded residual activity of O=C1Nc2ccc(Br)cc2/C1=C\c1cc2c([nH]1)CCCC2 , please.
output: 90.8

input: Recorded residual activity of N#C/C(=C\c1ccc(O)c(O)c1)C(=O)NCc1ccccc1 , please.
output: 99.2

input: Recorded residual activity of COc1cc(Nc2c(C#N)cnc3cc(OCCCN4CCN(C)CC4)c(OC)cc23)c(Cl)cc1Cl , please.
output: 91.1

----------
Catalogue of compounds with associated residual activity
Molecular target: VRK1 (human) (UniProt Q99986)
Sequence (Q99986 whole entry, looked up): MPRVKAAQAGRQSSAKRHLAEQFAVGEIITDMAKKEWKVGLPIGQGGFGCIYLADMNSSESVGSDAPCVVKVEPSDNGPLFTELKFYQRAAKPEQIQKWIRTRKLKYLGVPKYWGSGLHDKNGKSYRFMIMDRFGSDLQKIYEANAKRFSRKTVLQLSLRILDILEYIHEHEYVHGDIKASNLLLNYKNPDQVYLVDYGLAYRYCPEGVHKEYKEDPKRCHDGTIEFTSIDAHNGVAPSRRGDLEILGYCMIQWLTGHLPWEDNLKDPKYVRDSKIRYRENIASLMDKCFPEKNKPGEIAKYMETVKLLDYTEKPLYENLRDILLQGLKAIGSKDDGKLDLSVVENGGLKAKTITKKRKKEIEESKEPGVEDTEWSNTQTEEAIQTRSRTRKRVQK
Test: radiometric filter-binding kinase assay, Kinase HotSpot
Conditions: compound 0.5 µM; ATP 10 µM
Expressed in %, but write only the number.

A selection of reference data follows.
- Structure string: "N#Cc1c[nH]c2c[nH]/c(=N\\Cc3cccnc3)cc2/c1=N\\c1ccc(F)c(Cl)c1"
  Number: 99.2
- Structure string: "CCCCc1c(-c2ccc(OC)cc2)[nH]c2nccnc12"
  Number: 95.5

input: Recorded residual activity of CO[C@@H]1[C@H](N(C)C(=O)c2ccccc2)C[C@H]2O[C@]1(C)n1c3ccccc3c3c4c(c5c6ccccc6n2c5c31)C(=O)NC4 , please.
output: 90.8

input: Recorded residual activity of O=C1Nc2ccc(Br)cc2/C1=C\c1cc2c([nH]1)CCCC2 , please.
output: 108

input: Recorded residual activity of Fc1ccc(-c2nc3n(c2-c2ccncc2)CCS3)cc1 , please.
output: 86.8

input: Recorded residual activity of COc1ccc(Cl)cc1NC(=O)Nc1cc(C)nc2ccccc12 , please.
output: 84.6

input: Recorded residual activity of NC(=O)c1cccc(-c2cc(Nc3ccc(OC(F)(F)F)cc3)ncn2)c1 , please.
output: 97.9

input: Recorded residual activity of N#C/C(=C\c1ccc(O)c(O)c1)C(=O)NCc1ccccc1 , please.
output: 97

input: Recorded residual activity of COc1ccc2c(c1)/C(=C/c1cnc[nH]1)C(O)=N2 , please.
output: 91.2

input: Recorded residual activity of O=C1c2ccccc2-c2nc3nnnn3nc21 , please.
output: 90.5

input: Recorded residual activity of C[C@@H]1CCN(C(=O)CC#N)C[C@@H]1N(C)c1ncnc2[nH]ccc12 , please.
output: 100

input: Recorded residual activity of CN(C)c1ccc(/C=C2\C(=O)Nc3ccccc32)cc1 , please.
output: 89

input: Recorded residual activity of O=C(c1cc2cc(O)ccc2[nH]1)c1cc2cc(O)ccc2[nH]1 , please.
output: 85.3

input: Recorded residual activity of COc1ccc(C(=O)Nc2sc3c(c2C(N)=O)CCCC3)cc1OC , please.
output: 95.3

input: Recorded residual activity of CN(C)S(=O)(=O)c1ccc2c(c1)/C(=C/c1cc3c([nH]1)CCCC3)C(=O)N2 , please.
output: 104

input: Recorded residual activity of COc1ccc(S(=O)(=O)N(CCO)c2ccccc2CN(C)C/C=C/c2ccc(Cl)cc2)cc1 , please.
output: 96.4

input: Recorded residual activity of O=C1NC(=O)c2c1c1c3ccccc3[nH]c1n1cncc21 , please.
output: 78.1

input: Recorded residual activity of O=C1C(Cl)=C(N2C(=O)CCC2=O)C(=O)c2ccccc21 , please.
output: 92.4

input: Recorded residual activity of COc1cc2ncnc(Nc3ccc(OCc4ccccc4)cc3)c2cc1OC , please.
output: 89
